Values from ChEMBL document CHEMBL1201862

# Test system: NCI-H460
# Protocol: NCI tumour cell line growth inhibition, 48 h
Activity calls are given as the source filed them. Cut-off read from the data, not from the text of the source: active = GI50 up to about 1.1 µM and inactive = higher.
Would you kindly list GI50 for each of these compounds?

## Input // returns reported GI50 for input Cc1nc2c(o1)C(=O)c1ccccc1/C2=N/C1CCCCC1N (stereo not given)
## Output 1.61 µM (inactive)

## Input Check COC(=O)C1C(O)C(C)C(O)C(C)(O)C=C(C)C2=C3C(=C(C)C(=O)c4c(O)c(c(C)c(OC(C)=O)c43)NC(=O)C(C)=C/C=C\C(C)(O)C(O)C(C)C1O)OCO2 (stereo not given) too.
## Output > 100 µM (inactive)

## Input Check COC1=CCC2=C(CCN(C(=O)C3CC3)C2Cc2ccc(OC)c(O)c2)C1 (stereo not given) too.
## Output 42 µM (inactive)

## Input Check C/C(=N\NC(=S)NCCNC(=S)N/N=C(\C)c1ccccn1)c1ccccn1 too.
## Output 1.61 µM (inactive)

## Input Check COc1ccc(/C(Cl)=C(\C#N)c2ccc(OC)c(OC)c2)cc1OC too.
## Output 36.8 µM (inactive)

## Input Check CCCc1n[nH]c(CCC(=O)N(Cc2ccccc2)Cc2ccccc2)c1CC too.
## Output > 100 µM (inactive)

## Input Check O=[N+]([O-])/C(C(Cl)=C(Cl)Cl)=C(\Nc1ccccc1)n1nnc2ccccc21 too.
## Output 77.8 µM (inactive)

## Input Check Cc1ccc(S(=O)(=O)OC2CS[S+]([O-])CC2OS(=O)(=O)c2ccc(C)cc2)cc1 (stereo not given) too.
## Output 22.3 µM (inactive)

## Input Check COc1ccccc1C(=O)c1c(N2CCCCC2)c(=O)c1=O too.
## Output > 100 µM (inactive)

## Input Check CC(=O)c1c(-c2ccc(Cl)cc2)c(C#N)c(=S)n(C2OC(CO)C(O)C(O)C2O)c1C (stereo not given) too.
## Output 37 µM (inactive)

----------
Would you kindly list GI50 for each of these compounds?
# System: HL-60
# Protocol: NCI tumour cell line growth inhibition, 48 h
Active and inactive are the calls of the source. No stated cut-off is given here; in the data, active = GI50 up to about 1.1 µM and inactive = higher.

## Input Hi! What's the reported GI50 for CC1C=C(OC(=O)c2ccccc2)C(=O)C(n2cc(F)c(=O)[nH]c2=O)O1 (configuration not stated) on HL-60?
## Output 64.3 µM (inactive)

## Input Check COCCCNC(=O)CC(=O)NCCCOC too.
## Output > 100 µM (inactive)

## Input Check O=C1CCC(=O)N2CCCCN12 too.
## Output > 100 µM (inactive)

## Input Check Cn1c(=O)oc2cc(C3CCC(=O)N3Cc3csc(-c4ccccc4)n3)ccc21 (configuration not stated) too.
## Output 79.8 µM (inactive)

## Input Check O=[N+]([O-])c1cccc(/C=N/C23CC4CC(CC(C4)C2)C3)c1 too.
## Output 23.9 µM (inactive)

## Input Check Cc1ccc([N+](=O)[O-])cc1NC(=O)/C(CC(=O)c1sc(C(N)=S)nc1C)=N\N too.
## Output 43.9 µM (inactive)

## Input Check O=c1c2ccccc2[nH]c(=S)n1-c1ccc(Br)cc1 too.
## Output > 100 µM (inactive)

## Input Check O=C(/C=C/c1ccccc1)NC1C=Nc2ccc([N+](=O)[O-])cc2NC1=O (configuration not stated) too.
## Output 25.3 µM (inactive)

## Input Check Cc1ccc(O)c(C(c2ccc(C(c3cc(C)ccc3O)c3cc(C)ccc3O)cc2)c2cc(C)ccc2O)c1 too.
## Output 2.26 µM (inactive)

## Input Check Brc1ccccc1/C=N\C12CC3CC(CC(C3)C1)C2 too.
## Output 0.879 µM (active)

## Input Check Cc1cccc(NC(=O)CC(=O)N2N=C(N3c4ccccc4Sc4ccccc43)CC2c2ccccc2)c1 (configuration not stated) too.
## Output > 100 µM (inactive)

## Input Check COC(=O)C(Cc1ccc2c(c1)OCO2)(NC(=O)c1ccccc1)P(=O)(OC)OC (configuration not stated) too.
## Output > 100 µM (inactive)

## Input Check Cc1ccc(S(=O)(=O)OCCN(CCOS(=O)(=O)c2ccc(C)cc2)c2ccc(C=O)cc2)cc1 too.
## Output 42.3 µM (inactive)

## Input Check CCOC(=O)C(NC(=O)c1ccco1)(Nc1nc2ccc(OCC)cc2s1)C(F)(F)F (configuration not stated) too.
## Output > 100 µM (inactive)

## Input Check O/N=C\c1cc(O)c(O)c(/C=N/O)c1 too.
## Output 14.1 µM (inactive)

## Input Check C=C[C@]1(C)CCC2=C(CCC3C2(C)CCC[C@]3(C)CO)C1 (some centres not stated) too.
## Output 27.9 µM (inactive)

## Input Check COC1CC(n2cc(F)c(N)nc2=O)OC1CO (configuration not stated) too.
## Output > 100 µM (inactive)

## Input Check COc1ccc2c(c1)N(CCC1CCCCN1C)c1ccccc1S2 (configuration not stated) [OXYRIDAZINE] too.
## Output 9.14 µM (inactive)

## Input Check CO[C@H]1SC[C@H](OC(C)=O)[C@H](OC(C)=O)[C@H]1OC(C)=O too.
## Output > 100 µM (inactive)

## Input Check CCOc1cc(NC(C)=O)ccc1C(=O)NN1C(=O)CSC1c1ccc(O)c(OC)c1 (configuration not stated) too.
## Output 41.5 µM (inactive)

## Input Check COc1cc2cccc(/N=C\c3ccccc3Cl)c2cc1OC too.
## Output 4.48 µM (inactive)

## Input Check COC(=O)Cc1c(/C=C/C(C)(C)n2cnc(CCN3C(=O)CCC3=O)c2)[nH]c2ccccc12 too.
## Output > 100 µM (inactive)
